measurementKind: intrinsic clearance, human liver microsomes (mL/min/kg)
Answers are plain numbers, in mL/min/kg.

See these solved cases before continuing.
CCc1nnc(N2CC(N(C)C)C2)c(C#N)c1CC 9.15
CC#CC(=O)N1CC[C@@H](n2c(=O)n(-c3ccc(Oc4ccccc4)cc3)c3c(N)ncnc32)C1 21.3
COCC1(CNC(=O)c2cc(Cl)cnc2O)CCC1 16.3
Cc1cc(N2CCN(C(=O)OC(C)(C)C)[C@H](C)C2)ncn1 9.46
Cc1ccc(CN(C)c2ncnc3c2cnn3C)o1 19.2

Provide intrinsic clearance, human liver microsomes values for the following items, in order.
1. COC(C)(C)C(=O)Nc1ccnc(C(C)(C)C)n1
2. OCCOc1ccccc1OCc1ncc(Cl)cc1Cl

stdout:
10.9
48.5

----------
Please go through the items and note down their log10(intrinsic clearance, rat liver microsomes).
Plainly stated, the numbers are log10 of intrinsic clearance, rat liver microsomes given in mL/min/kg.

molecule	valueMeasured
CC(=O)NC1CCC(NCCSc2ccc(C)cc2)CC1 (stereo unspecified)	2.70
O=S(=O)(Nc1ccc(C(O)(C(F)(F)F)C(F)(F)F)cc1)c1ccccc1	1.23
Cc1ccc2nc(-c3ccc(N(C)C)cc3)[nH]c2c1	3.40
Cc1cc2nc(Sc3nnc(C)n3C)c3ccccc3n2n1	1.54
COc1cccc(C(=O)NCC(=O)Nc2cccc3c2CCCC3)c1	2.78

Next item in the queue.
stdin: So what does the record say about log10(intrinsic clearance, rat liver microsomes) for Cc1csc(NC(=O)c2cccc(C)c2C)n1 ?
stdout: 2.96

----------
Kindly state log10(aqueous solubility) for each of the entries shown.
assayConditions: pH 6.8
In our notation, the value equals log10 of aqueous solubility in µg/mL.

Recorded results for 5 compounds are shown here.
compound	valueMeasured
CC(=O)N1CCN(c2nc(C(F)(F)F)nc3sc(C)c(C)c23)CC1	1.71
COc1cc(F)c(NCC(=O)Nc2ccc(C)cc2)cc1OC	1.68
COc1cc(OC)cc(C(=O)Nc2nc3c(s2)COc2ccccc2-3)c1	-0.41
O=C(CCc1ccc(Cl)cc1)N1CCCC(c2n[nH]cc2-c2cccc(F)c2)C1 (centres undefined)	0.59
O=C(CCn1cncn1)N(CC#Cc1ccccc1)C1CCCC1	1.35

I have 4 compounds here; please give me log10(aqueous solubility) for each one.
1. COc1ccc(CCn2c(C)c3c(=O)n(-c4nc5ccccc5s4)[nH]c3cc2=O)cc1
2. O=C(CC1CCN(c2ncc(Cl)cn2)CC1)N1CCOCC1
3. Cc1cc(C)n(-c2cccc(NC(=O)c3ccc(F)c(F)c3)c2)n1
4. O=C(Cn1cccc(C(=O)Nc2cccc(-n3cccn3)c2)c1=O)NC1CCCCC1

stdout:
1. 1.35
2. 1.71
3. 0.21
4. -0.10

----------
Label scheme for intrinsic clearance, rat liver microsomes: low band = under 100 mL/min/kg, middle band = from 100 mL/min/kg up to 400 mL/min/kg, high band = 400 mL/min/kg and over

Some solved entries appear below for comparison.
compound	categoryLabel
CCCn1cc(CN2CCC(c3nc(N(C)C)no3)CC2)cn1	middle band
Cc1ccccc1N(CC(=O)N(C)C)S(C)(=O)=O	high band
Cc1cc(C(=O)N(C)C2CCC2)n2nccc2n1	low band

stdin: Entry COc1cc2cc(N)c(C3CCN(C(=O)C(C)(C)C)CC3)nc2cc1OC belongs to which category?
stdout: low band

stdin: Now the compound Cc1ccc(CNC(=O)CN2CCC(n3nnc4cc(C)ccc43)CC2)cc1
stdout: high band

stdin: Now give it for CC(=O)N1CCCN(C(=O)Nc2ccc(N(C)C3CCCCC3)c(F)c2)CC1 too.
stdout: high band

stdin: Consider next the compound O=C(NCCc1ccc2c(c1)OCO2)Nc1ccncc1 in the same way.
stdout: low band

stdin: Next up: c1nc(Nc2ccc3c(c2)OCCCO3)c2sccc2n1
stdout: high band

stdin: Please give the result for Cc1cc(C(=O)Nc2ncccc2C)c2ccccc2n1 too.
stdout: low band

stdin: Ok, now O=C(CCC1CCOCC1)Nc1ccc(C(=O)O)cc1
stdout: low band

stdin: Let us now turn to Cc1cc(N)n(-c2ncnc3sc(C)c(-c4ccc(Cl)cc4)c23)n1
stdout: high band

stdin: Now consider CCn1c(=O)n(CC)c2cc(N)ccc21 .
stdout: low band

stdin: Let us now turn to Cc1cccc(NC(=O)c2cccc3ncccc23)c1
stdout: middle band

----------
Returns one of Met or Not met; Met when MDR1-MDCK efflux ratio is >= 2.

Previously resolved entries follow.
molecule	categoryLabel
O=C1N=C(N2CCN(c3ccccc3)CC2)S/C1=C\c1ccc(O)cc1O	Met
COc1ccc(NC(=O)C(C)N2CCCN(c3ccc(C(F)(F)F)cn3)CC2)cc1 (centres undefined)	Not met
Cc1ccc(F)cc1NC(=O)c1cnc2onc(C(C)C)c2c1	Not met

stdin: Determine whether measured MDR1-MDCK efflux ratio meets or exceeds 2 for Cn1ccc(C(=O)N2CCCC(c3cccc(-c4cccc(Cl)c4)n3)C2)n1 (centres undefined)
stdout: Not met

stdin: Moving on to the next molecule: Cc1cc(Nc2cnccn2)cc(C2CCCN(CC(=O)N3CCCC3)C2)n1 (centres undefined)
stdout: Met

stdin: Ok, now COc1ccccc1C(=O)Nc1cccc(C#N)c1
stdout: Not met

----------
assayConditions: pH 6.8
// not satisfied strictly below 30 µg/mL in aqueous solubility; satisfied otherwise

compound	categoryLabel
CCCn1c(=O)n(Cc2ccc(C#N)cc2F)c2ccccc21	not satisfied
CC(=O)NCCCOc1ccc(CN2C[C@H](Oc3cccc(C)c3)[C@@H](O)C2)cc1	satisfied
CN1CCCN(c2nc(C(F)(F)F)nc3cc4c(cc23)OCO4)CC1	satisfied
Cc1cc(Cl)c(OCCCN2CCNCC2)c(Br)c1	satisfied
O=C(C1CCCN(c2ccccn2)C1)N1CCc2ccccc2C1 (centres undefined)	satisfied

stdin: Has Cc1ccc(C(=O)Nc2cccc(C(=O)N(C)C)c2)cn1 a recorded aqueous solubility greater than or equal to 30 µg/mL?
stdout: satisfied

stdin: Now consider CC(C)Cc1sc(N)nc1-c1ccc(P(=O)(O)O)o1 .
stdout: satisfied

stdin: Record: CC(C)c1ccc(NC(=O)Cn2cnc3c2c(=O)n(C)c(=O)n3C)cc1
stdout: not satisfied

stdin: Param item: c1cc2cc[nH]c2c(CC2CN(C3CCCC3)C2)n1
stdout: not satisfied

stdin: What do you get for O=C(Nc1ccc2c(c1)OCCCO2)c1cnn(Cc2ccccc2)c1 ?
stdout: not satisfied

stdin: Same thing, different compound: O=C(c1ccccc1)N1CCN(C(=O)c2ccc(-c3ccccc3Cl)o2)CC1
stdout: satisfied

stdin: Also CCc1nc2ccccc2n1CC(=O)N1CCNC(=O)C1 , if possible.
stdout: satisfied

stdin: Try this compound too: O=C1Nc2ccc(Cl)cc2[C@@](C#CC2CC2)(C(F)(F)F)O1
stdout: not satisfied

stdin: Here is the next compound: C[C@@]1(c2ncncc2F)NC(=O)c2cc(-c3cn[nH]c3)ccc21
stdout: satisfied

stdin: Another compound to check: O=C(Cc1ccc2c(c1)OCCO2)NC1CCCCCC1
stdout: satisfied

stdin: Now consider CCc1nc(CN2C(=O)COc3ccc(F)cc32)cs1 .
stdout: not satisfied

stdin: Do the same for Cn1cc(-c2ccc3nnc(C(F)(F)c4ccc5ncccc5c4)n3n2)cn1 please
stdout: satisfied

stdin: Try this compound too: O=C(CCCNC(=O)NC1CCCCC1)Nc1cc(C2CC2)n[nH]1
stdout: satisfied

stdin: Then COc1ccc(-c2nnc(-c3ccccc3)o2)cc1OC ?
stdout: not satisfied

stdin: Another: Cc1ccc(N2CCN(C(=O)c3c(C)nc4sccn34)CC2=O)cc1
stdout: satisfied

----------
Exercise: for every item that follows, state its recorded intrinsic clearance, rat liver microsomes.
Numbers only, in mL/min/kg.

compound	resultUnits	valueMeasured
CC1(C)[C@@H]2C[C@H]1[C@@]1(O)[C@@H](C2)Oc2c(ccc(O)c2C(=O)NCCNc2ccccn2)[C@@H]1O	mL/min/kg	2010
CSc1cnc(N2CCCN(c3ncc(SC)cn3)CC2)nc1	mL/min/kg	1850
O=C(NCCCn1ccnc1)N1CC2(CCCC2)c2ccccc21	mL/min/kg	747
CNc1nc(Nc2cnn([C@H]3CCN(C4COC4)C[C@@H]3F)c2Cl)ncc1C(F)(F)F	mL/min/kg	60.9
CCOC(=O)c1ccc(NC(=O)Cn2cnc3ccccc32)cc1	mL/min/kg	521
Cc1noc2ncnc(N3CCCN(C(=O)C4CC4)CC3)c12	mL/min/kg	149

Batch request: intrinsic clearance, rat liver microsomes for each of the following compounds.
1. CN(C)[C@@H]1CN(C(=O)CCn2cnc3ccccc32)C[C@H]1O
2. COc1cc(-c2ccc(Cn3nc(C)cc3C)cn2)cc(OC)c1OC
3. CC(C)CCn1ccc(NC2CCN(C(C)C)CC2)n1
4. CC[C@@H]1[C@H](F)C(=O)N[C@@H]1COc1nccc2cc(C(N)=O)c(OC)cc12
5. Cc1cc(C(=O)N(C)Cc2ccsc2)no1
6. CCN(Cc1ccncc1)[C@@H]1CN(C(=O)c2ccccc2)C[C@H]1O
7. Cc1oc(C)c(C(=O)NCC#Cc2ccccc2)c1C
8. CC(C)C[C@H](CO)Nc1nc(S[C@@H](C)c2ccccc2)nc2nc(N)sc12

stdout:
[30.7, 345, 152, 218, 241, 361, 1320, 329]
